PROTOCOL DESCRIPTION: self-splicing fitness, log relative to wild type (ln ratio); higher = more splicing; Tetrahymena group I intron in knt gene, E. coli kanamycin selection, DiMSum; sequences stand for … in CUCUCU…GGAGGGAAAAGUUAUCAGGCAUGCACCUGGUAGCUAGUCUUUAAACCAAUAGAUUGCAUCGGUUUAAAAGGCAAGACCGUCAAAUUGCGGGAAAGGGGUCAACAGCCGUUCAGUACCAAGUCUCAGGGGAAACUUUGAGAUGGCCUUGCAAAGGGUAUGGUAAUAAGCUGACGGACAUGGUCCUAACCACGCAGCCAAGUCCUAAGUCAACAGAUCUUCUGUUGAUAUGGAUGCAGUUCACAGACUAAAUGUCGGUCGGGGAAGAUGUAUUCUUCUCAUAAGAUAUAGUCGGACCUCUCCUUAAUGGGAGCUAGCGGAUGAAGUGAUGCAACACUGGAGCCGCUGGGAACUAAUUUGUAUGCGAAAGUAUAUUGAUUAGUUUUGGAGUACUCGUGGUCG;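 further: selection with 25 µg/mL kanamycin versus none on LB agar overnight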
CONDITION SET: 30 °C
Form field: self-splicing fitness (ln) (one value per entry).

Solved cases below.
**Query** So what's the measured self-splicing fitness (ln) for this one? CCAAAGCAAUAUUACGGUCA
**Result** -3.54

**Query** Queued: GAUCAGCAAUAUUACGGUAG
**Result** -0.683

**Query** And then GAUCAGCAAUAUUACGUGGA , what is it?
**Result** -2.82

**Query** Next sequence up: GAGCAGCAAUAUUACGGUAG
**Result** -4.29

**Query** Next up: ACACAGCAAUAUUACGGGCA
**Result** -1.48

Now take the following sequence into account.
**Query** Entry GAAAAGCAAUAUUACGUGGU has what self-splicing fitness (ln)?
**Result** -3.58

###

Measured self-splicing fitness (ln) values are reported for all entries that follow.
PROTOCOL DESCRIPTION: self-splicing fitness, log relative to wild type (ln ratio); higher = more splicing; Tetrahymena group I intron in knt gene, E. coli kanamycin selection, DiMSum; sequences stand for … in CUCUCU…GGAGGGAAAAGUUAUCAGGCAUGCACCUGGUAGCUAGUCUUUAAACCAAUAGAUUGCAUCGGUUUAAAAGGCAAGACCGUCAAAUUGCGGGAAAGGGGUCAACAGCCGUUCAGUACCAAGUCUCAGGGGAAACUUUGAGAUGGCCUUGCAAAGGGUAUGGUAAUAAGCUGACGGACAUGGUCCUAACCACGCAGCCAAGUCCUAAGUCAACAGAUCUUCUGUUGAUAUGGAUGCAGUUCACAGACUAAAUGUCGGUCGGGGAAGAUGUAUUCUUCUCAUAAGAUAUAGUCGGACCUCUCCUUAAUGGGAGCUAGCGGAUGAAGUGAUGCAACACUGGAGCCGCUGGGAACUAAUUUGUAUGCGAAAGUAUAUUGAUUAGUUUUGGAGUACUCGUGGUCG
CONDITION SET: 30 °C

Would you please look over these solved cases?
**Query** What value of self-splicing fitness (ln) has been recorded for this entry: UCGUAGCAAUAUUACGUCCA
**Result** -0.914

**Query** UCGGAGCAAUAUUACGCGAG ?
**Result** -3.29

**Query** Same read-out for UAUGAGCAAUAUUACGCACC ?
**Result** -1.68

**Query** Try this sequence too: AAAUAGCAAUAUUACGUUGU
**Result** -4.44

**Query** Now the sequence CCGGAGCAAUAUUACGUGGC
**Result** -3.77

**Query** Try this sequence next: CACCAGCAAUAUUACGGUCG
**Result** -1.28

Continuing:
**Query** Look at this sequence and give its reported self-splicing fitness (ln). UGAAAGCAAUAUUACGGGAC
**Result** -3.12

**Query** Same question, ACCCAGCAAUAUUACGUGAU this time
**Result** -0.402

###

Below, each entry is listed alongside its reported self-splicing fitness (ln).
PROTOCOL DESCRIPTION: self-splicing fitness, log relative to wild type (ln ratio); higher = more splicing; Tetrahymena group I intron in knt gene, E. coli kanamycin selection, DiMSum; sequences stand for … in CUCUCU…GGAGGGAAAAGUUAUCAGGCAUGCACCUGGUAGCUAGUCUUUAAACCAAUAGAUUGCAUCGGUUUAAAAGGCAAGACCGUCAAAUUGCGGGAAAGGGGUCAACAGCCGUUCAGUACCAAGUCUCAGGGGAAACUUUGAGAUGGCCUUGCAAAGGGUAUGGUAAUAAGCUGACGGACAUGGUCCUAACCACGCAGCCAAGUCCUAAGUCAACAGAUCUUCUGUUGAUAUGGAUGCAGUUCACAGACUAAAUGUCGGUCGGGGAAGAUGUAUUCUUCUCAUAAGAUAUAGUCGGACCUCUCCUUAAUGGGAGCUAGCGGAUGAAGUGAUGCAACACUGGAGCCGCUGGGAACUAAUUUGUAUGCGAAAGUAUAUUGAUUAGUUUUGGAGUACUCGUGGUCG
CONDITION SET: 30 °C

Here are 4 sequences together with their reported answers.
**Query** Record request: self-splicing fitness (ln) value, item CACAAGCAAUAUUACGACUC
**Result** -1.97

**Query** Now the sequence GGCCAGCAAUAUUACGGUUA
**Result** 0.0773

**Query** What do you have for CCAGAGCAAUAUUACGACGA ?
**Result** -2.94

**Query** Same again, this time with ACAAAGCAAUAUUACGCGUU
**Result** -3.19

---
**Query** Look up self-splicing fitness (ln): UGUGAGCAAUAUUACGUCUG
**Result** -0.95

**Query** What do we get for CGUGAGCAAUAUUACGUGAC ?
**Result** -4.11

**Query** How about CUGCAGCAAUAUUACGCGGG ?
**Result** -3.94

###

// reported self-splicing fitness (ln) per item
PROTOCOL DESCRIPTION: self-splicing fitness, log relative to wild type (ln ratio); higher = more splicing; Tetrahymena group I intron in knt gene, E. coli kanamycin selection, DiMSum; sequences stand for … in CUCUCU…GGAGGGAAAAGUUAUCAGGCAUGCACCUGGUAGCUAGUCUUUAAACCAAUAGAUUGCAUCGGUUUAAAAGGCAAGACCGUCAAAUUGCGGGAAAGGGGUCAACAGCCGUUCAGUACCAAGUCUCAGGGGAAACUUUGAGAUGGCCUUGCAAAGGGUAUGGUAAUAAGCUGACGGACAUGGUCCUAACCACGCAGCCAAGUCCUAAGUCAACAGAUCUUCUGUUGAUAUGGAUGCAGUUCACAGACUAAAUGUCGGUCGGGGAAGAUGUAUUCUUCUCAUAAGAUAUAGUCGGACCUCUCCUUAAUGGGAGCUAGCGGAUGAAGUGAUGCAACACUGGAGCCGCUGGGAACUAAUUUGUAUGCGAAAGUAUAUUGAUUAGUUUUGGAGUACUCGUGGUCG
CONDITION SET: 30 °C
Enter a number only.

**Query** Would you kindly share the measured self-splicing fitness (ln) for AUACAGCAAUAUUACGCCAU ?
**Result** -2.01

Now turn to the next sequence.
**Query** Fill blank: measured self-splicing fitness (ln) of the sequence CAAUAGCAAUAUUACGAAGC is ____.
**Result** -3.01

###

Quick reference for self-splicing fitness (ln) among some sequences
PROTOCOL DESCRIPTION: self-splicing fitness, log relative to wild type (ln ratio); higher = more splicing; Tetrahymena group I intron in knt gene, E. coli kanamycin selection, DiMSum; sequences stand for … in CUCUCU…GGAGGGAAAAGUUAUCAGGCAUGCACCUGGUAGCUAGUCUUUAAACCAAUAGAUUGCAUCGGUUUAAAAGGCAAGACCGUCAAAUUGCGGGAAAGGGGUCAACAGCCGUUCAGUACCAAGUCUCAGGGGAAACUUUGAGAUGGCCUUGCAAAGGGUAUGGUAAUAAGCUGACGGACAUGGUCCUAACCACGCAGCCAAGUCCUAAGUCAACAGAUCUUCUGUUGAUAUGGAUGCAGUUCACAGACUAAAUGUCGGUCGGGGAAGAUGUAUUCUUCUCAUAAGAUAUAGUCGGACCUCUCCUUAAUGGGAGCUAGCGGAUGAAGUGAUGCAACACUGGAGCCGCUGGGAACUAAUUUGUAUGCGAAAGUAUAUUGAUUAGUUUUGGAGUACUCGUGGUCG
CONDITION SET: 30 °C
Answer field: number only, no words.

**Query** Looking for the measured self-splicing fitness (ln) of GACAAGCAAUAUUACGGCCA , can you help?
**Result** -0.973

New cases:
**Query** Which value of self-splicing fitness (ln) has been reported for CUCAAGCAAUAUUACGUGUG in the records?
**Result** -2.73

**Query** How about CCCUAGCAAUAUUACGAGCA ?
**Result** -2.64

**Query** How about this sequence: UUAAAGCAAUAUUACGCGAC
**Result** -2.19

**Query** UUCGAGCAAUAUUACGUAUC , same question.
**Result** -3

**Query** Please do the same for CCUGAGCAAUAUUACGAGUU as well.
**Result** -3.99

**Query** Now consider UCAUAGCAAUAUUACGGGGA and answer again.
**Result** -1.54

**Query** Now the same for UUGGAGCAAUAUUACGCAAA
**Result** -2.95

**Query** Okay, and CUAAAGCAAUAUUACGCAAU ?
**Result** -3.94

**Query** Next up: UCAGAGCAAUAUUACGGAAG
**Result** -3.05

**Query** Moving on to CCGUAGCAAUAUUACGAUCG
**Result** 0.0338

**Query** # repeat for ACGAAGCAAUAUUACGUUAA
**Result** -3.25

Reference source for all entries: the supplement of paper PMC7877785
